Ref: ChEMBL document CHEMBL4138135

assay: Distribution coefficient, log D of the compound at pH 7.4; format: physicochemical; details: octanol/water, read-out: logD
Readout: logD

Past entries and their recorded results:
>>> endpoint_value("c1cc(-c2ccc3ncnc(Nc4ccncn4)c3c2)cc(N2CCOCC2)c1")
3.1
>>> endpoint_value("c1cncc(Nc2ncnc3ccc(-c4cccc(N5CCOCC5)c4)cc23)c1")
3.9
>>> endpoint_value("Cc1ccnc(Nc2ncnc3ccc(-c4cccc(N5CCOCC5)c4)cc23)n1")
2.9
>>> endpoint_value("c1cc(-c2ccc3ncnc(Nc4cncnc4)c3c2)cc(N2CCOCC2)c1")
3.2
>>> endpoint_value("COc1cnc(Nc2ncnc3ccc(-c4cccc(N5CCOCC5)c4)cc23)cn1")
3.8

P. O=C(CN1CCOCC1)Nc1ccc2ncnc(Nc3ccc(OCc4cccc(F)c4)c(Cl)c3)c2c1
Q. Cc1nnc(Nc2ncnc3ccc(-c4cccc(N5CCOCC5)c4)cc23)nc1C
Query :: API: POST /compare with P and Q ; response names the item with higher logD. Pick one; state its label.
Result :: P
(P: 4.5, Q: 2.8)

a. c1cc(-c2ccc3ncnc(Nc4ccncc4)c3c2)cc(N2CCOCC2)c1
b. c1cnc(Nc2ncnc3ccc(-c4ccnc(N5CCOCC5)n4)cc23)nc1
Query :: API: POST /compare with a and b ; response names the item with higher logD. Pick one; state its label.
Result :: a

---

assay: Lipophilicity, log P of the compound; type: physicochemical; settings: octanol/water; read-out: logP
Readout: logP

>>> endpoint_value("c1cnc(Nc2ncnc3ccc(-c4nccc(N5CCOCC5)n4)cc23)nc1")
2.9
>>> endpoint_value("Nc1cccnc1Nc1ncnc2ccc(-c3cccc(N4CCOCC4)c3)cc12")
3.5
>>> endpoint_value("c1cncc(Nc2ncnc3ccc(-c4cccc(N5CCOCC5)c4)cc23)c1")
3.8

---

assay: Lipophilicity, log P of the compound; assay type: physicochemical; conditions: octanol/water; read-out: logP
Readout: logP

>>> endpoint_value("Cc1cnnc(Nc2ncnc3ccc(-c4cccc(N5CCOCC5)c4)cc23)c1")
3.9
>>> endpoint_value("c1cc(-c2ccc3ncnc(Nc4ccncc4)c3c2)cc(N2CCOCC2)c1")
3.8
>>> endpoint_value("c1cc(-c2ccc3ncnc(Nc4cncs4)c3c2)cc(N2CCOCC2)c1")
3.8

---

test: Distribution coefficient, log D of the compound at pH 7.4; type: physicochemical; conditions: octanol/water, read-out: logD
Readout: logD

Past entries and their recorded results:
>>> endpoint_value("c1cc(-c2ccc3ncnc(Nc4cccnn4)c3c2)cc(N2CCOCC2)c1")
3
>>> endpoint_value("CC(=O)Nc1cccnc1Nc1ncnc2ccc(-c3cccc(N4CCOCC4)c3)cc12")
3.2
>>> endpoint_value("Nc1ncccc1Nc1ncnc2ccc(-c3cccc(N4CCOCC4)c3)cc12")
2.9

P. c1cc(-c2ccc3ncnc(Nc4cnccn4)c3c2)cc(N2CCOCC2)c1
Q. c1cnc(Nc2ncnc3ccc(-c4nccc(N5CCOCC5)n4)cc23)nc1
Query :: Dear colleague, could you let me know whether P or Q has the lower recorded logD? Thanks. Pick one; state its label.
Result :: Q
(Q: 2, P: 3.1)

A. CCn1nccc1Nc1ncnc2ccc(-c3cccc(N4CCOCC4)c3)cc12
B. O=c1nc(Nc2ncnc3ccc(-c4cccc(N5CCOCC5)c4)cc23)c(F)c[nH]1
Query :: Dear colleague, could you let me know whether A or B has the lower recorded logD? Thanks. Pick one; state its label.
Result :: B

---

assay: Distribution coefficient, log D of the compound at pH 7.4; assay type: physicochemical; conditions: octanol/water, read-out: logD
Readout: logD

>>> endpoint_value("c1cnc(Nc2ncnc3ccc(-c4cccc(N5CCOCC5)c4)cc23)nc1")
2.5
>>> endpoint_value("c1ccc(Nc2ncnc3ccc(-c4cccc(N5CCOCC5)c4)cc23)nc1")
3.9
>>> endpoint_value("Nc1cccnc1Nc1ncnc2ccc(-c3cccc(N4CCOCC4)c3)cc12")
2.8
